Target: human TRPV4 (Homo sapiens, UniProt Q9HBA0)
Construct: expressed in transfected cells; host or cells: BHK/AC9 cells transduced with BacMam virus
Sequence (Q9HBA0 whole entry): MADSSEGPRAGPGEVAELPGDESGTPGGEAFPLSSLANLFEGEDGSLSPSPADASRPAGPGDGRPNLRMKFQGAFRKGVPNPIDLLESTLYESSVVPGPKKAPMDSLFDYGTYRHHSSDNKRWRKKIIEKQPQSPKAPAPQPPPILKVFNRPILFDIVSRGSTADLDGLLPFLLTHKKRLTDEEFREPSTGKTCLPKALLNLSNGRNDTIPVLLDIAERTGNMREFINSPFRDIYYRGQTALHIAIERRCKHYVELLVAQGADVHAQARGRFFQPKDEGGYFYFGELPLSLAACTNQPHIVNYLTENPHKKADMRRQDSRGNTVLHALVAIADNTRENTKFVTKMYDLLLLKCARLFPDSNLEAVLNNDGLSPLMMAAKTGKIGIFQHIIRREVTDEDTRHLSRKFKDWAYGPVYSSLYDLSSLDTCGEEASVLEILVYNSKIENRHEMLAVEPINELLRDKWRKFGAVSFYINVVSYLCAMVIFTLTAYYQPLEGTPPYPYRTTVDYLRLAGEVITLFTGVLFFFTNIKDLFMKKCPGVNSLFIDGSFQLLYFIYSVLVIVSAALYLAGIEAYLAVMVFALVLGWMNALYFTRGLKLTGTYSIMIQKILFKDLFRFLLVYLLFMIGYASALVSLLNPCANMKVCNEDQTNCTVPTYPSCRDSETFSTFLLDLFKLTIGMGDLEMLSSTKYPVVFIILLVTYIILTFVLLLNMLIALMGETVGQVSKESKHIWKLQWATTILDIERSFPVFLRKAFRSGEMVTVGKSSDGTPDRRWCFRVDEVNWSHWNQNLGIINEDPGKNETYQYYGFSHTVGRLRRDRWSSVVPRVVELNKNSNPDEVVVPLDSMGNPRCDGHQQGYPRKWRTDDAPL
Assay: FLIPR assay for hTRPV4 expressed in BHK cells: inhibition of Agonist Compound-induced calcium signal
Assay type: cell-based
Settings: hTRPV4 in BHK/AC9 cells, FLIPR calcium signal, agonist at EC80; reported as range class; read-out: IC50
pIC50: −log10 of the molar value. Structures can show the parent of a compound that is named as a salt.
Each entry below carries its recorded pIC50.

Here is how some compounds turned out for pIC50.
N#Cc1ccc(S(=O)(=O)N2C[C@H](Oc3ccc(C#N)c(F)c3)[C@](O)(CO)C2)cn1 = 7.00 to 8.00
C[C@@H](O)[C@]1(O)CN(S(=O)(=O)c2ccc(F)cn2)C[C@@H]1Oc1ccc(C#N)c(F)c1 = 7.00 to 8.00

Supply pIC50 value. Item: N#Cc1ccc(O[C@H]2CN(S(=O)(=O)c3ccc(Cl)cc3C#N)C[C@]2(O)CN)cc1F [Example 235, Hydrochloride]
8.00 to 10.00

Supply pIC50 value. Item: N#Cc1ccc(O[C@H]2CN(S(=O)(=O)c3ccc(Br)cc3C#N)C[C@@]2(O)CO)cc1F
8.00 to 10.00

Supply pIC50 value. Item: N#Cc1cc(Cl)ccc1S(=O)(=O)N1C[C@H](Oc2ccc(C(F)(F)F)cc2)[C@@](O)(CO)C1
8.00 to 10.00

Supply pIC50 value. Item: N#Cc1ccc(O[C@H]2CN(S(=O)(=O)c3ccc(Cl)cn3)C[C@]2(O)CO)cc1F
6.00 to 7.00

Supply pIC50 value. Item: N#Cc1ccc(O[C@H]2CN(S(=O)(=O)c3ccc(C(F)(F)F)cc3C#N)C[C@]2(O)CO)cc1F
8.00 to 10.00

---

Each entry below carries its recorded IC50.
Target: human TRPV4 (Homo sapiens, UniProt Q9HBA0)
Construct: expressed in transfected cells; host or cells: BHK/AC9 cells transduced with BacMam virus
Assay: FLIPR assay for hTRPV4 expressed in BHK cells: inhibition of Agonist Compound-induced calcium signal
Type: cell-based
Details: hTRPV4 in BHK/AC9 cells, FLIPR calcium signal, agonist at EC80; reported as range class; read-out: IC50

Here is how some compounds turned out for IC50.
N#Cc1cc(OCC(F)(F)F)c(O[C@H]2CN(S(=O)(=O)c3ccc(Cl)cn3)C[C@]2(O)CO)cc1F [Example 215] = 10 to 100 nM
CC(C)Oc1cc(C#N)c(F)cc1O[C@H]1CN(S(=O)(=O)c2ccc(C(F)(F)F)cc2C#N)C[C@@]1(O)CO [Example 161] = 0.1 to 10 nM
N#Cc1ccc(O[C@H]2CN(S(=O)(=O)c3ccc(C(F)(F)F)cc3C#N)C[C@@]2(O)CO)c(C(F)(F)F)c1 [Example 17] = 0.1 to 10 nM

Kindly review the next compound as well.
Fill: IC50 (human TRPV4 (Homo sapiens, UniProt Q9HBA0)) for this compound Cc1cc(C#N)ccc1O[C@H]1CN(S(=O)(=O)c2ccc(C(F)(F)F)cc2C#N)C[C@@]1(O)CO [Example 16]
0.1 to 10 nM

---

Target: human TRPV4 (Homo sapiens, UniProt Q9HBA0)
Construct: expressed in transfected cells; host or cells: BHK/AC9 cells transduced with BacMam virus
Experiment: FLIPR assay for hTRPV4 expressed in BHK cells: inhibition of Agonist Compound-induced calcium signal
Assay type: cell-based
Conditions: hTRPV4 in BHK/AC9 cells, FLIPR calcium signal, agonist at EC80; reported as range class; read-out: IC50
pIC50: −log10 of the molar value.
Each entry below carries its recorded pIC50.

Supply pIC50 value. Item: N#Cc1ccc(O[C@H]2CN(S(=O)(=O)c3ccccc3Br)C[C@@]2(O)CO)cc1F [Example 117]
7.00 to 8.00

Supply pIC50 value. Item: CCCOc1cc(C#N)c(F)cc1O[C@H]1CN(S(=O)(=O)c2ccc(C(F)(F)F)cc2C#N)C[C@@]1(O)CO [Example 160]
8.00 to 10.00

Supply pIC50 value. Item: CN1CCO[C@]2(C1)CN(S(=O)(=O)c1ccc(Cl)cc1C#N)C[C@@H]2Oc1ccc(C#N)c(F)c1 [Example 252]
8.00 to 10.00

Supply pIC50 value. Item: Cc1nn(C)c(S(=O)(=O)N2C[C@H](Oc3ccc(C#N)c(F)c3)[C@](O)(CO)C2)c1Cl [Example 124]
6.00 to 7.00

Supply pIC50 value. Item: N#Cc1cc(C(F)(F)F)ccc1S(=O)(=O)N1C[C@H](Oc2cc(F)c(F)c(F)c2)[C@](O)(CO)C1 [Example 26]
7.00 to 8.00

Supply pIC50 value. Item: N#Cc1ccc(O[C@H]2CN(S(=O)(=O)c3ccc(F)cc3C#N)C[C@]2(O)CO)cc1F [Example 138]
8.00 to 10.00

Supply pIC50 value. Item: CC(C)COc1cc(C#N)c(F)cc1O[C@H]1CN(S(=O)(=O)c2ccc(C#N)cc2)C[C@@]1(O)CO [Example 180]
8.00 to 10.00

---

Molecular target: human TRPV4 (Homo sapiens, UniProt Q9HBA0)
Construct: expressed in transfected cells; host or cells: BHK/AC9 cells transduced with BacMam virus
Assay: FLIPR assay for hTRPV4 expressed in BHK cells: inhibition of Agonist Compound-induced calcium signal
Assay type: cell-based
Conditions: hTRPV4 in BHK/AC9 cells, FLIPR calcium signal, agonist at EC80; reported as range class; read-out: IC50
Counter-ions that a name gives are not always drawn.
Each entry below carries its recorded IC50.

Here is how some compounds turned out for IC50.
C[C@H](O)[C@]1(O)CN(S(=O)(=O)c2ccc(Cl)cc2Cl)C[C@@H]1Oc1ccc(C#N)c(F)c1 = 0.0001 to 0.01 µM
C[C@@H](O)[C@]1(O)CN(S(=O)(=O)c2ccc(I)cc2)C[C@@H]1Oc1ccc(C#N)c(F)c1 = 0.0001 to 0.01 µM
CCC[C@H](O)[C@]1(O)CN(S(=O)(=O)c2ccc(Cl)cn2)C[C@@H]1Oc1ccc(C#N)c(F)c1 = 0.01 to 0.1 µM
N#Cc1ccc(S(=O)(=O)N2C[C@H](Oc3ccc(C#N)cc3OCC(F)(F)F)[C@](O)(CO)C2)cc1 = 0.01 to 0.1 µM
Cn1ncc(Br)c1S(=O)(=O)N1C[C@H](Oc2ccc(C#N)c(F)c2)[C@](O)(CO)C1 = 0.01 to 0.1 µM
N#Cc1ccc(S(=O)(=O)N2C[C@H](Oc3ccc(Cl)cc3)[C@](O)(CO)C2)cn1 = 0.01 to 0.1 µM
O=S(=O)(c1ccc(C(F)(F)F)cc1F)N1C[C@H](Oc2ccc3nonc3c2)[C@](O)(CO)C1 = 0.01 to 0.1 µM
N#Cc1ccc(O[C@H]2CN(S(=O)(=O)c3ccc(Cl)cn3)C[C@@]2(O)CN)cc1F [Example 233, Hydrochloride] = 0.01 to 0.1 µM
CCOc1cc(C#N)c(F)cc1O[C@H]1CN(S(=O)(=O)c2ccc(C(F)(F)F)cc2C#N)C[C@@]1(O)CO = 0.0001 to 0.01 µM
N#Cc1ccc(O[C@H]2CN(S(=O)(=O)c3ccc(C(F)(F)F)cc3)C[C@@]2(O)CO)cc1F = 0.01 to 0.1 µM

Supply IC50 value. Item: N#Cc1ccc(O[C@H]2CN(S(=O)(=O)c3ccc(Cl)cc3C#N)C[C@]2(O)CNCCO)cc1F
0.0001 to 0.01 µM

Supply IC50 value. Item: N#Cc1ccc(O[C@H]2CN(S(=O)(=O)c3ccc(F)cc3Br)C[C@]2(O)CO)cc1F
0.01 to 0.1 µM

Supply IC50 value. Item: N#Cc1ccc(O[C@H]2CN(S(=O)(=O)c3ccc(OC(F)(F)F)nc3)C[C@@]2(O)CN)cc1F [Example 249, Hydrochloride]
0.01 to 0.1 µM

Supply IC50 value. Item: N#Cc1ccccc1S(=O)(=O)N1C[C@H](Oc2ccc(Cl)cc2)[C@](O)(CO)C1
0.01 to 0.1 µM

Supply IC50 value. Item: CC(C)COc1cc(C#N)ccc1O[C@H]1CN(S(=O)(=O)c2ccc(C(F)(F)F)cc2C#N)C[C@@]1(O)CO
0.0001 to 0.01 µM

---

Biological target: human TRPV4 (Homo sapiens)
Construct: expressed in transfected cells; host or cells: BHK/AC9 cells transduced with BacMam virus
Experiment: FLIPR assay for hTRPV4 expressed in BHK cells: inhibition of Agonist Compound-induced calcium signal
Format: cell-based
Conditions: hTRPV4 in BHK/AC9 cells, FLIPR calcium signal, agonist at EC80; reported as range class; read-out: IC50
Counter-ions that a name gives are not always drawn.
READOUT KIND: IC50

Here is how some compounds turned out for IC50.
N#Cc1cc(C(F)(F)F)ccc1S(=O)(=O)N1C[C@H](Oc2ccc(Cl)cc2)[C@@](O)(CO)C1 = 10 to 100 nM
CC(C)COc1cc(C#N)c(F)cc1O[C@H]1CN(S(=O)(=O)c2ccc(C(F)(F)F)cc2)C[C@@]1(O)CO = 10 to 100 nM
C[C@@H](O)[C@]1(O)CN(S(=O)(=O)c2ccc(C(F)F)nc2)C[C@@H]1Oc1ccc(C#N)c(F)c1 = 10 to 100 nM
N#Cc1ccc(O[C@H]2CN(S(=O)(=O)c3ccc(Cl)cn3)C[C@]2(O)CN)cc1F [Example 234, Hydrochloride] = 10 to 100 nM
N#Cc1cc(C(F)(F)F)ccc1S(=O)(=O)N1C[C@H](Oc2ccc(OC(F)(F)F)cc2)[C@](O)(CO)C1 = 0.1 to 10 nM

Supply IC50 value. Item: N#Cc1cc(Cl)ccc1S(=O)(=O)N1C[C@H](Oc2ccc(F)c(F)c2)[C@](O)(CO)C1
0.1 to 10 nM

Supply IC50 value. Item: N#Cc1ccc(O[C@H]2CN(S(=O)(=O)c3ccc(Cl)cc3)C[C@@]2(O)CO)cc1F
10 to 100 nM

Supply IC50 value. Item: N#Cc1cc(OCC(F)(F)F)c(O[C@H]2CN(S(=O)(=O)c3ccccc3C#N)C[C@@]2(O)CO)cc1F
0.1 to 10 nM

Supply IC50 value. Item: CCOc1cc(C#N)ccc1O[C@H]1CN(S(=O)(=O)c2ccc(C(F)(F)F)cc2C#N)C[C@@]1(O)CO
0.1 to 10 nM

Supply IC50 value. Item: N#Cc1ccc(O[C@H]2CN(S(=O)(=O)c3ccc(C(F)(F)F)cc3C#N)C[C@@]2(O)CO)c(OC2CC2)c1
0.1 to 10 nM

Supply IC50 value. Item: N#Cc1ccc(O[C@H]2CN(S(=O)(=O)c3ccc(Br)cc3)C[C@@]2(O)CO)cc1F
10 to 100 nM

Supply IC50 value. Item: N#Cc1cc(C(F)(F)F)ccc1S(=O)(=O)N1C[C@H](Oc2ccc(C(F)(F)F)cc2)[C@@](O)(CO)C1
10 to 100 nM

Supply IC50 value. Item: Cn1ncc(Cl)c1S(=O)(=O)N1C[C@H](Oc2ccc(C#N)c(F)c2)[C@](O)(CN)C1
10 to 100 nM

Supply IC50 value. Item: N#Cc1ccc(O[C@H]2CN(S(=O)(=O)c3ccc(Br)cc3C#N)C[C@]2(O)CO)cc1F
0.1 to 10 nM
